ASSAY SUMMARY: growth inhibition of P. falciparum 3D7, dose response, 3D7 strain, red blood cells, SYBR Green, cherry-picked (AID 652047);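 on activity change, negative = inhibition: 0% = untreated neutral control wells and -100% = mefloquine positive control wells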
EXPERIMENTAL CONTEXT: P. falciparum 3D7 in RBCs, SYBR Green DNA fluorescence; at 50 µM (top of the series)
Activity calls are given as the source filed them.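 How the source made its calls: active means fitted curve reaches activity change of -35% signal drop at a concentration below twice the top valid tested dose; inactive means the rest, including activity in the opposite direction.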
Please respond with reported activity change, negative = inhibition for every item in the list.

Request: May I ask what activity change, negative = inhibition has been recorded for `O=C(O)c1c(NC(=O)N2CCCC2)sc2c1CCCC2` ?
Result: -4.69% (inactive)

Request: May I ask what activity change, negative = inhibition has been recorded for `CCc1ccc(S(=O)(=O)N(C(=O)c2ccncc2)c2ccc(OC(=O)c3ccncc3)cc2)cc1` ?
Result: -20% (inactive)

Request: May I ask what activity change, negative = inhibition has been recorded for `Cc1nc2ccc(C(=O)NCc3ccc4c(c3)OCO4)cc2s1` ?
Result: 1.05% (inactive)

----------
System: P. falciparum 3D7 in RBCs, SYBR Green DNA fluorescence
ASSAY SUMMARY: growth inhibition of P. falciparum 3D7, dose response, 3D7 strain, red blood cells, SYBR Green, cherry-picked (AID 652047)
REPORTED ENDPOINT: AC35

Request: Item: `CC(C)N1CCN(c2ccc(OC[C@H]3CO[C@](Cn4cncn4)(c4ccc(Cl)cc4Cl)O3)cc2)CC1` Test system: P. falciparum 3D7 in RBCs, SYBR Green DNA fluorescence Read-out: AC35 Value: ?
Result: 5.3 µM

Request: Item: Cc1cccc(N2CCN(C(=O)C3COc4ccccc4O3)CC2)c1C (stereo unspecified) Test system: P. falciparum 3D7 in RBCs, SYBR Green DNA fluorescence Read-out: AC35 Value: ?
Result: 34.3 µM

Request: Item: `O=[N+]([O-])c1cccc(C=NNc2ccc3ccccc3n2)c1O` Test system: P. falciparum 3D7 in RBCs, SYBR Green DNA fluorescence Read-out: AC35 Value: ?
Result: 4.23 µM

Request: Item: CCC(NC(=S)NCc1ccc(F)cc1)c1ccc(C(C)C)cc1 (stereo unspecified) Test system: P. falciparum 3D7 in RBCs, SYBR Green DNA fluorescence Read-out: AC35 Value: ?
Result: 11.8 µM

Request: Item: `c1ccc(-c2ccc(SCc3cccnc3)nn2)nc1` Test system: P. falciparum 3D7 in RBCs, SYBR Green DNA fluorescence Read-out: AC35 Value: ?
Result: 33.1 µM

Request: Item: O=S1OC(c2ccccc2)c2cc(Cl)ccc21 (stereo unspecified) Test system: P. falciparum 3D7 in RBCs, SYBR Green DNA fluorescence Read-out: AC35 Value: ?
Result: 11.3 µM

Request: Item: `O=C(NCc1ccncc1)c1ccccc1Nc1ccc(SC(F)F)cc1` Test system: P. falciparum 3D7 in RBCs, SYBR Green DNA fluorescence Read-out: AC35 Value: ?
Result: 21.1 µM

Request: Item: `Cc1ccc(NS(=O)(=O)c2ccc(N3CCN(c4ccc(O)cc4)CC3)c([N+](=O)[O-])c2)c(C)c1` Test system: P. falciparum 3D7 in RBCs, SYBR Green DNA fluorescence Read-out: AC35 Value: ?
Result: 17.2 µM

Request: Item: `c1ccc(CSc2ccc(-c3ccccn3)nn2)nc1` Test system: P. falciparum 3D7 in RBCs, SYBR Green DNA fluorescence Read-out: AC35 Value: ?
Result: 19 µM

Request: Item: `CCCCC(=O)NC(=S)NNC(=O)CCc1ccccc1` Test system: P. falciparum 3D7 in RBCs, SYBR Green DNA fluorescence Read-out: AC35 Value: ?
Result: 20.8 µM

Request: Item: `COc1cc(/C=N/O)cc(Br)c1OCc1cccc(Cl)c1` Test system: P. falciparum 3D7 in RBCs, SYBR Green DNA fluorescence Read-out: AC35 Value: ?
Result: 29.6 µM

Request: Item: O=C(NCC1CC1(Cl)Cl)Nc1ccc(Cl)c(Cl)c1 (stereo unspecified) Test system: P. falciparum 3D7 in RBCs, SYBR Green DNA fluorescence Read-out: AC35 Value: ?
Result: 8.82 µM

Request: Item: `C[n+]1c2cc(N)ccc2cc2ccc(N)cc21` Test system: P. falciparum 3D7 in RBCs, SYBR Green DNA fluorescence Read-out: AC35 Value: ?
Result: 0.0327 µM

Request: Item: `COc1ccc(O)c(C(=O)CC(=O)c2ccc(F)cc2)c1` Test system: P. falciparum 3D7 in RBCs, SYBR Green DNA fluorescence Read-out: AC35 Value: ?
Result: 16.1 µM

Request: Item: `O/N=C(\c1ccc(Cl)cc1)c1cc2ccccc2o1` Test system: P. falciparum 3D7 in RBCs, SYBR Green DNA fluorescence Read-out: AC35 Value: ?
Result: 8.56 µM

Request: Item: `O=C(Nc1nc(-c2ccccn2)cs1)c1ccc(Br)s1` Test system: P. falciparum 3D7 in RBCs, SYBR Green DNA fluorescence Read-out: AC35 Value: ?
Result: 0.663 µM

----------
Please respond with reported AC35 for every item in the list.
Tested on: P. falciparum 3D7 in RBCs, SYBR Green DNA fluorescence
ASSAY SUMMARY: growth inhibition of P. falciparum 3D7, dose response, 3D7 strain, red blood cells, SYBR Green, cherry-picked (AID 652047)

Request: May I ask what AC35 has been recorded for CC(C)N1CCN(c2ccc(OCC3COC(Cn4cncn4)(c4ccc(Cl)cc4Cl)O3)cc2)CC1 (configuration not stated) ?
Result: 3.77 µM

Request: May I ask what AC35 has been recorded for CC(C)C(=O)NC(c1ccco1)c1ccc2cccnc2c1O (configuration not stated) ?
Result: 2.02 µM

Request: May I ask what AC35 has been recorded for `CC(/C=N/n1c(COc2ccccc2)n[nH]c1=S)=C\c1ccccc1` ?
Result: 37.3 µM

Request: May I ask what AC35 has been recorded for `CCOC(=O)c1ccc(NC(=S)N(Cc2cccnc2)Cc2ccco2)cc1` ?
Result: 21.7 µM

Request: May I ask what AC35 has been recorded for `CC/C(=N/NC(=O)c1ccccc1O)c1c(C)[nH]n(-c2ccccc2)c1=O` ?
Result: 34.9 µM

Request: May I ask what AC35 has been recorded for `O=P(Nc1cccnc1)(Oc1ccccc1Cl)Oc1ccccc1Cl` ?
Result: 40.7 µM

Request: May I ask what AC35 has been recorded for Cc1cc(Cl)ccc1C(=O)C1CCCN(C(=O)c2cncs2)C1 (configuration not stated) ?
Result: 26 µM

Request: May I ask what AC35 has been recorded for CCC1=NN(C(=O)c2cccc(Br)c2)C(O)(c2ccc(Br)cc2)C1 (configuration not stated) ?
Result: 14.7 µM

Request: May I ask what AC35 has been recorded for `O=C(N/N=C/c1ccc[nH]1)c1sc2ccccc2c1Cl` ?
Result: 8.77 µM

Request: May I ask what AC35 has been recorded for `CC(=O)Oc1ccc(OC(C)=O)c(SCCCCCCl)c1` ?
Result: 4.82 µM

Request: May I ask what AC35 has been recorded for `CC(=O)C1=C(c2ccc(Br)cc2)C(=O)c2ccccc2C1=O` ?
Result: 0.82 µM

Request: May I ask what AC35 has been recorded for CCCCC(=O)NC(c1ccco1)c1cc(Cl)c2cccnc2c1O (configuration not stated) ?
Result: 1.48 µM

Request: May I ask what AC35 has been recorded for `O=C(Nc1ccc(Cl)cc1C(=O)Nc1ccc(Br)cn1)c1ccco1` ?
Result: 15.1 µM

Request: May I ask what AC35 has been recorded for `COc1cc([N+](=O)[O-])cc(/C=N/NC(=O)c2cncc(Br)c2)c1O` ?
Result: 11.7 µM

Request: May I ask what AC35 has been recorded for `CC1CCN(c2nc(-c3ccncc3)nc3ccccc23)CC1` ?
Result: 4.32 µM

Request: May I ask what AC35 has been recorded for `Cc1ccccc1C(=O)NNC(=S)NC(=O)c1ccc(Cl)cc1Cl` ?
Result: 41.1 µM

Request: May I ask what AC35 has been recorded for Clc1ccc(C(Cn2ccnc2)OCc2c(Cl)cccc2Cl)c(Cl)c1 (configuration not stated) ?
Result: 2.76 µM

Request: May I ask what AC35 has been recorded for C[C@@]12CCC3[C@@](CCC4[C@@]3(C)CCC[C@@]4(C)C(=O)NCc3ccccc3)(CC1=O)C2 (some centres not stated) ?
Result: 30.2 µM

Request: May I ask what AC35 has been recorded for O=C(CC1CC2CCC1C2)Nc1nc(-c2ccccn2)cs1 (configuration not stated) ?
Result: 2.94 µM

Request: May I ask what AC35 has been recorded for CC(=O)NC(c1cccc([N+](=O)[O-])c1)c1ccc2cccnc2c1O (configuration not stated) ?
Result: 2 µM

Request: May I ask what AC35 has been recorded for `COc1ccc(-c2oc3ccccc3c2C#Cc2cncn2C)cc1` ?
Result: 0.603 µM

Request: May I ask what AC35 has been recorded for `CN(Cc1ccc(Cl)s1)C(=O)CCl` ?
Result: 1.69 µM

Request: May I ask what AC35 has been recorded for `Cc1cc(C(=O)COC(=O)Cc2n[nH]c(=O)c3ccccc23)c(C)n1-c1cccc(C(F)(F)F)c1` ?
Result: 6.57 µM

Request: May I ask what AC35 has been recorded for `CN(C)c1nc(-c2ccccn2)nnc1-c1ccccc1` ?
Result: 1.13 µM

Request: May I ask what AC35 has been recorded for `Cc1ccc(Cl)cc1NC1=C/C(=N\S(=O)(=O)c2cccs2)c2ccccc2C1=O` ?
Result: 0.0436 µM

Request: May I ask what AC35 has been recorded for `Cc1cc(C)c(C(=O)CC(=O)c2cccnc2)c(C)c1` ?
Result: 6.77 µM

Request: May I ask what AC35 has been recorded for `CC[n+]1c(/C=C/C=C/c2ccc(N(C)C)cc2)sc2ccccc21` ?
Result: 6.28 µM

Request: May I ask what AC35 has been recorded for `NC(=Nc1nc(-c2ccccn2)cc2ccccc12)c1ccccn1` ?
Result: 0.0527 µM

Request: May I ask what AC35 has been recorded for `COc1ccc(-c2cc(C(=O)N3CCN(c4ccccc4F)CC3)c3ccccc3n2)c(OC)c1` ?
Result: 9.76 µM

Request: May I ask what AC35 has been recorded for `COc1ccc(N=N/C(=C\O)C(=O)c2cccs2)cc1` ?
Result: 7.16 µM

Request: May I ask what AC35 has been recorded for `C=CCNc1nc(-c2ccccn2)nnc1-c1ccccc1` ?
Result: 1.21 µM

Request: May I ask what AC35 has been recorded for `O=C(CN1CC[n+]2c(-c3cccs3)csc21)c1ccc(-c2ccccc2)cc1` ?
Result: 2.39 µM

Request: May I ask what AC35 has been recorded for O=C(c1ccc(-c2ccccc2)cc1)C1CCCN(C(=O)c2cncs2)C1 (configuration not stated) ?
Result: 9.45 µM

Request: May I ask what AC35 has been recorded for `O=C(CSc1ccc(-c2ccccn2)nn1)c1ccccc1` ?
Result: 20 µM

Request: May I ask what AC35 has been recorded for C=CCOC(Cn1ccnc1)c1ccc(Cl)cc1Cl (configuration not stated) ?
Result: 6.08 µM

Request: May I ask what AC35 has been recorded for `CCCCCOc1ccc(CSc2n[nH]c(C)n2)cc1` ?
Result: 18.6 µM

Request: May I ask what AC35 has been recorded for `CCn1c2ccc(C)cc2c2nc3cc(C(=O)O)ccc3nc21` ?
Result: 42.6 µM

Request: May I ask what AC35 has been recorded for `COC(=O)c1cccc2c1-c1ccccc1/C2=N/O` ?
Result: 34.7 µM

Request: May I ask what AC35 has been recorded for `CCCCCCCCCCOC(=O)Cn1c(COc2ccccc2OC)[n+](C)c2ccccc21` ?
Result: 0.401 µM

Request: May I ask what AC35 has been recorded for COC(=O)C1=C(C)NC(C)=C(C(=O)OCC(C)C)C1c1ccccc1[N+](=O)[O-] (configuration not stated) ?
Result: 4.78 µM

Request: May I ask what AC35 has been recorded for `O/N=C(\c1ccc(Cl)cc1Cl)c1ncc(C(F)(F)F)cc1Cl` ?
Result: 16.9 µM

Request: May I ask what AC35 has been recorded for CC(C)(C)C(O)C(Cc1ccccc1Cl)n1cncn1 (configuration not stated) ?
Result: 25.7 µM

Provenance of the data: PubChem BioAssay AID652047
